Target: DNA gyrase (Escherichia coli, UniProt P0AES4+P0AES6)
Construct: purchased Inspiralis, UK
Sequence (P0AES4 whole entry, one chain of several): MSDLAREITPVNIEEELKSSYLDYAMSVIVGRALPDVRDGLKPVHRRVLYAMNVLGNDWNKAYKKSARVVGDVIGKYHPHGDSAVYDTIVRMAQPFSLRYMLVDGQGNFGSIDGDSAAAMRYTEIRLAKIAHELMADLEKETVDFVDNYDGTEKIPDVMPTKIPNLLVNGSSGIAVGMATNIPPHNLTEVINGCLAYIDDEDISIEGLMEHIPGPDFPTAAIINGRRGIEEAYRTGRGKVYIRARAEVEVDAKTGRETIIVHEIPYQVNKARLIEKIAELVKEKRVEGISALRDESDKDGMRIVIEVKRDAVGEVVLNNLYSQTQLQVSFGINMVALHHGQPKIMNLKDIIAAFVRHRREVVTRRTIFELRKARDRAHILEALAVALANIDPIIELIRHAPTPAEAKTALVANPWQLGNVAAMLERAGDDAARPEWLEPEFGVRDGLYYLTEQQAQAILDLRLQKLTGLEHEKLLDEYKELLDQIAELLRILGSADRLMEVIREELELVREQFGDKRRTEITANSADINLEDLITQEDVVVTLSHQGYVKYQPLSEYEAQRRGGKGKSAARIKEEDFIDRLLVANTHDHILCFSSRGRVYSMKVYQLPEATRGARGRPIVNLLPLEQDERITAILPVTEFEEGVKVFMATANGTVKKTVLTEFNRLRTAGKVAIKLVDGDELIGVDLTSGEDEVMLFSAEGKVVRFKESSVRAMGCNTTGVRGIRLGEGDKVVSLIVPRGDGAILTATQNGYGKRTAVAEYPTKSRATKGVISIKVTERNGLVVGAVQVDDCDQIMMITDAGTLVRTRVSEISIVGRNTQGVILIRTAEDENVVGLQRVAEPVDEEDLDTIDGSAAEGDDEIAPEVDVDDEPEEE
Assay: DNA gyrase supercoiling assay (E. coli)
Format: biochemical
Conditions: single concentration (200, 100 or 50 μM), in duplicate, versus the positive control (vehicle)
Counter-ions that a name gives are not always drawn.

- Compound: "O=C(NCCN1CCN(c2nccc3ccccc23)CC1)c1ccccc1 [Compound 4, hydrochloride]"
  Study System: "DNA gyrase (Escherichia coli, UniProt P0AES4+P0AES6)"
  % inhibition DNA gyrase: "n/a (n/a = not active)"
- Compound: "Cc1ccc2c(N3CCN(CCCNC(=O)c4cccnc4)CC3)nccc2c1"
  Study System: "DNA gyrase (Escherichia coli, UniProt P0AES4+P0AES6)"
  % inhibition DNA gyrase: "n/a (n/a = not active)"
- Compound: "O=C(CN1CCC(Nc2cc(=O)oc3ccccc23)CC1)NCc1nccc2ccccc12"
  Study System: "DNA gyrase (Escherichia coli, UniProt P0AES4+P0AES6)"
  % inhibition DNA gyrase: "78%"
- Compound: "O=C(O)C[C@@H](NC[C@@H](O)CN1CCN(c2nccc3ccc(F)cc23)CC1)c1ccccc1"
  Study System: "DNA gyrase (Escherichia coli, UniProt P0AES4+P0AES6)"
  % inhibition DNA gyrase: "n/a (n/a = not active)"
- Compound: "COC(=O)CC(NCCNC1CCN(c2nccc3ccc(F)cc23)CC1)C1CCCCC1 (centres unmarked)"
  Study System: "DNA gyrase (Escherichia coli, UniProt P0AES4+P0AES6)"
  % inhibition DNA gyrase: "n/a (n/a = not active)"
- Compound: "O=c1cc(NCCCN2CCN(c3nccc4ccccc34)CC2)cc(-c2ccccc2)o1 [Compound 60, hydrochloride]"
  Study System: "DNA gyrase (Escherichia coli, UniProt P0AES4+P0AES6)"
  % inhibition DNA gyrase: "100%"
- Compound: "O=C(NCCCN1CCN(c2nccc3cc(F)ccc23)CC1)c1cccnc1 [Compound 45, hydrochloride]"
  Study System: "DNA gyrase (Escherichia coli, UniProt P0AES4+P0AES6)"
  % inhibition DNA gyrase: "n/a (n/a = not active)"
- Compound: "O=c1cc(NC2CCCC(N3CCN(c4nccc5ccccc45)CC3)C2)c2ccccc2o1 (centres unmarked) [Compound 74, hydrochloride]"
  Study System: "DNA gyrase (Escherichia coli, UniProt P0AES4+P0AES6)"
  % inhibition DNA gyrase: "65%"
